src = patent US20250230155A1

# Assayed system: human mAChR M4 (Homo sapiens)
# Construct: expressed in transfected cells
# Test method notes: mAChR M4 cell-based functional assay (calcium mobilization, CHO-K1 hM4-Gqi5 cells)
# Test conditions: positive allosteric modulator activity, increase in the EC20 acetylcholine response, CHO-K1 hM4-Gqi5 cells; read-out: Human M4 EC50
Recorded pEC50 for the following molecules
Notebook: values listed as pEC50 are -log10 of the concentration (mol/L).

Molecule: Cc1cc(C#N)cnc1N1CCc2ncc(N3CCO[C@H](c4ccccc4)C3)cc2C1 [Example 375]
pEC50: 5.88

Find the measured pEC50: item Cc1cc(C#N)cnc1N1CCc2ncccc2C1 [compound 45] , target or system human mAChR M4 (Homo sapiens).
5.92

Find the measured pEC50: item Cc1c(C#N)nnc(N2CCc3ncc(N4CCO[C@H](c5ccccc5)C4)cc3C2)c1C [Example 376] , target or system human mAChR M4 (Homo sapiens).
5.86

====

# Assayed system: human mAChR M4 (Homo sapiens, UniProt P08173)
# Construct: expressed in transfected cells
# Sequence (P08173 1-479): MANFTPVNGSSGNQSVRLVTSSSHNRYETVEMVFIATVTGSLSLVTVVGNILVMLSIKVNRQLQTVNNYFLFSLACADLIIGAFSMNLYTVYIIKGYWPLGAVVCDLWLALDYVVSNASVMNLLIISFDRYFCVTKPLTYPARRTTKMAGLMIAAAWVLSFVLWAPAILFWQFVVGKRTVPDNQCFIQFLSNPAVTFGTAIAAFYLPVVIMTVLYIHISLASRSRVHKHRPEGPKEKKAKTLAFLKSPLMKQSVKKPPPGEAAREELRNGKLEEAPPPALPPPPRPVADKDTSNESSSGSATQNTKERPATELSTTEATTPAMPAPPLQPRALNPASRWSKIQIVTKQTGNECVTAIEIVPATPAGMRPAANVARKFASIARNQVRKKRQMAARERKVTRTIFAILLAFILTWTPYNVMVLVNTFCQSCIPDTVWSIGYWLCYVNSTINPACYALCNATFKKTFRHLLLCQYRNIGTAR
# Test method notes: mAChR M4 cell-based functional assay (calcium mobilization, CHO-K1 hM4-Gqi5 cells)
# Test conditions: CHO-K1, % ACh maximum at 30 μM; human M4
Rule: Emax at 30 µM of 90% or more gives Condition met; anything lower gives Condition not met.

Illustrative cases are given below, each with its answer.
Compound structure string: Cc1cc(C(=O)NCCc2ccncc2)cnc1N1CCc2ncccc2C1
Classification: Condition not met

Compound structure string: Cc1cc(C(=O)NCc2ccc(-n3ccnc3)nc2)cnc1N1CCc2ncc(-c3cn(C)nc3C)cc2C1
Classification: Condition not met

Compound structure string: Cc1cc(F)ncc1-c1cnc2c(c1)CN(c1ncc(C(=O)NCc3nccs3)cc1C)CC2
Classification: Condition met

Compound structure string: Cc1cnccc1CNC(=O)c1nnc(N2CCc3ncc(C(F)(F)F)cc3C2)c(C)c1C
Classification: Condition met

Compound structure string: Cc1cc(C#N)cnc1N1CCc2ncc(-c3cnn(C4CCCCC4)c3)cc2C1
Classification: Condition not met

Compound structure string: Cc1nc(Cl)c(C)c(N2CCc3ncc(-c4cnc(C)s4)cc3C2)n1
Classification: Condition not met

API: the following record is the query input.
Check the entry `Cc1nc(N2CCCC2)c(C)c(N2CCc3ncc(-c4ccc(F)nc4)cc3C2)n1` : does Emax at 30 µM equal or exceed 90%?
Condition not met

====

# Assayed system: human mAChR M4 (Homo sapiens, UniProt P08173)
# Construct: expressed in transfected cells
# Sequence (P08173 1-479): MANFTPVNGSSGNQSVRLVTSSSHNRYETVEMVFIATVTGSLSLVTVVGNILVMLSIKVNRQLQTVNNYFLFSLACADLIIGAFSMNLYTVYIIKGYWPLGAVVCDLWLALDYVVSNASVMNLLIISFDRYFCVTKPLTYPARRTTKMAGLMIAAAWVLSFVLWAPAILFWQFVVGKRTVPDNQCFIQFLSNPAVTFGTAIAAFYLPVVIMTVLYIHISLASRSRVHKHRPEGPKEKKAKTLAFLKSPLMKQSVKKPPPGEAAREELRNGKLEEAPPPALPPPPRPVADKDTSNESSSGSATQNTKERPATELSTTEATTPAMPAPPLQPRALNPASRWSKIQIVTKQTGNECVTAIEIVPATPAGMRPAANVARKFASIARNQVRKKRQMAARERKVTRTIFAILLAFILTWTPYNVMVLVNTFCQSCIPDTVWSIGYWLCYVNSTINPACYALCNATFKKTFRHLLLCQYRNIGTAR
# Test method notes: mAChR M4 cell-based functional assay (calcium mobilization, CHO-K1 hM4-Gqi5 cells)
# Test conditions: positive allosteric modulator activity, increase in the EC20 acetylcholine response, CHO-K1 hM4-Gqi5 cells; read-out: Human M4 EC50
Value type: pEC50
Notebook: values listed as pEC50 are -log10 of the concentration (mol/L).

Examples with their reported pEC50 follow.
Compound: Cc1cc(C#N)cnc1N1Cc2cc(N3CCOCC3)cnc2C(C)C1 (single isomer, unassigned) [Example 408]
Value type: pEC50
Test result: 6.16
//
Compound: Cc1nc(Cl)c(C)c(N2CCc3ncc(-c4cnn(C5CCC5)c4)cc3C2)n1
Value type: pEC50
Test result: 6.21
//
Compound: Cc1cc(C#N)cnc1N1CCc2ncc(-n3cccn3)cc2C1
Value type: pEC50
Test result: 6.42
//
Compound: Cc1cc(C(=O)NC23CC(F)(C2)C3)cnc1N1CCc2ncc(-c3cn(C)nc3C)cc2C1
Value type: pEC50
Test result: 5.61

Now take the following compound into account.
Look at this compound and give its reported pEC50. `[2H]C([2H])([2H])c1cnc2c(c1)CN(c1nnc(C(=O)NCc3ccncc3)cc1C)CC2`
7.30

====

# Assayed system: human mAChR M4 (Homo sapiens, UniProt P08173)
# Construct: expressed in transfected cells
# Test method notes: mAChR M4 cell-based functional assay (calcium mobilization, CHO-K1 hM4-Gqi5 cells)
# Test conditions: positive allosteric modulator activity, increase in the EC20 acetylcholine response, CHO-K1 hM4-Gqi5 cells; read-out: Human M4 EC50
Value type: EC50
In your response, put the unit directly after the numeric value.

Examples with their reported EC50 follow.
Compound structure string: Cc1cc(C#N)cnc1N1CCc2ncc(-c3cnn(C4CCC4)c3)cc2C1
Assayed system: human mAChR M4 (Homo sapiens, UniProt P08173)
Value type: EC50
Test result: 339 nM

Compound structure string: Cc1cc(C#N)cnc1N1CCc2ncc(N3CCN(C)C(=O)C3)cc2C1
Assayed system: human mAChR M4 (Homo sapiens, UniProt P08173)
Value type: EC50
Test result: 1100 nM

Compound structure string: Cc1cc(C#N)cnc1N1CCc2ncc(-c3cnn(C4CCCCC4)c3)cc2C1
Assayed system: human mAChR M4 (Homo sapiens, UniProt P08173)
Value type: EC50
Test result: 740 nM

Now take the following molecule into account.
Look at this molecule and give its reported EC50. `Cc1cc(C(=O)NCc2nccs2)cnc1N1CCc2ncc(-c3cnn(C)c3)cc2C1`
77.3 nM

====

# Assayed system: human mAChR M4 (Homo sapiens, UniProt P08173)
# Construct: expressed in transfected cells
# Test method notes: mAChR M4 cell-based functional assay (calcium mobilization, CHO-K1 hM4-Gqi5 cells)
# Test conditions: CHO-K1, % ACh maximum at 30 μM; human M4
Recorded Emax at 30 µM for the following compounds
Write the number in % without appending the unit.

Look at this compound and give its reported Emax at 30 µM. Cc1c(Cl)nc(C(F)(F)F)nc1N1CCc2ncc(Nc3ccnn3C)cc2C1 [compound 247]
91

Look at this compound and give its reported Emax at 30 µM. COc1cnc(Cl)c(-c2cnc3c(c2)CN(c2nnc(C#N)c(C)c2C)CC3)c1 [compound 52]
64

Look at this compound and give its reported Emax at 30 µM. Cc1cc(C(=O)N(C)C)nnc1N1CCc2ncc(N3CCCn4nccc43)cc2C1 [Example 556]
87

Look at this compound and give its reported Emax at 30 µM. Cc1nc(Cl)c(C)c(N2CCc3ncc(-c4cn(C)nc4C)cc3C2)n1 [compound 192]
90

Look at this compound and give its reported Emax at 30 µM. Cc1cc(C(=O)NC23CC(F)(C2)C3)cnc1N1CCc2ncc(-c3cn(C)nc3C)cc2C1 [Example 477]
80

====

# Assayed system: human mAChR M4 (Homo sapiens)
# Construct: expressed in transfected cells
# Sequence (P08173 1-479): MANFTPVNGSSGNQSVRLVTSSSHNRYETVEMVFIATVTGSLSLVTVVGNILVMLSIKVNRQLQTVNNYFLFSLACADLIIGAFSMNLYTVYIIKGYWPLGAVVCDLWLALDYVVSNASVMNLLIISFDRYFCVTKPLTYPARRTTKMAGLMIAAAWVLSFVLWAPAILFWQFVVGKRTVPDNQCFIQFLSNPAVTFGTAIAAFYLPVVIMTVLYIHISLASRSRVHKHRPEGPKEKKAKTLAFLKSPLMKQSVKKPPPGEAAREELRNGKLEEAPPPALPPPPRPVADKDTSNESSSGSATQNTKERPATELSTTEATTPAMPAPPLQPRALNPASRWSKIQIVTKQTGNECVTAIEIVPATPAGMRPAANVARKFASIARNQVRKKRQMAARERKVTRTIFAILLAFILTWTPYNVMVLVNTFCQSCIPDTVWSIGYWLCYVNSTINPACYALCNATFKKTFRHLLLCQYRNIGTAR
# Test method notes: mAChR M4 cell-based functional assay (calcium mobilization, CHO-K1 hM4-Gqi5 cells)
# Test conditions: CHO-K1, % ACh maximum at 30 μM; human M4
Value type: Emax at 30 µM (%)
Write the number in % without appending the unit.

Examples with their reported Emax at 30 µM follow.
Molecule: [2H]C1([2H])Cc2ncc(Nc3ccncc3C)cc2C([2H])([2H])N1c1ncc(C#N)cc1C [Example 610]
Assayed system: human mAChR M4 (Homo sapiens)
Unit annotation: %
Emax at 30 µM: 70
//
Molecule: Cc1cc(C#N)cnc1N1CCc2ncc(Nc3cc(F)cc(F)c3F)cc2C1 [compound 116]
Assayed system: human mAChR M4 (Homo sapiens)
Unit annotation: %
Emax at 30 µM: 95
//
Molecule: Cc1cc(C#N)cnc1N1CCc2ncc(Nc3ccccc3F)cc2C1 [Example 7]
Assayed system: human mAChR M4 (Homo sapiens)
Unit annotation: %
Emax at 30 µM: 94
//
Molecule: Cc1cc(C#N)cnc1N1CCc2ncc(OCCOc3ccccc3F)cc2C1 [Example 429]
Assayed system: human mAChR M4 (Homo sapiens)
Unit annotation: %
Emax at 30 µM: 57
//
Molecule: Cc1cc(C(=O)N2CC(C)(F)C2)nnc1N1CCc2ncc(Nc3ccnn3C)cc2C1 [Example 560]
Assayed system: human mAChR M4 (Homo sapiens)
Unit annotation: %
Emax at 30 µM: 75

Look at this molecule and give its reported Emax at 30 µM. Cc1cnc2c(c1)CN(c1ncc(C(=O)Nc3ccncc3)cc1C)CC2 [Example 438]
88

Look at this molecule and give its reported Emax at 30 µM. Cc1cc(C(=O)N2CC(C)(O)C2)nnc1N1CCc2ncc(-n3cccn3)cc2C1 [Example 534]
88
